Form field: half-life (one value per entry).
Assay: Metabolic stability in human hepatocytes assessed as half life
Assay type: ADME, cell-based, Hepatocyte

Example molecules with recorded half-life:
{"molecule": "CCn1c(=O)[nH]c(=O)c2c1nc(Cc1cn3ccccc3n1)n2Cc1ccc(-c2ccn(C)n2)cc1", "half-life": "> 1 h"}
{"molecule": "CCn1c(=O)[nH]c(=O)c2c1nc(Cc1cn3cc(C)sc3n1)n2Cc1ccccc1", "half-life": "0.367 h"}
{"molecule": "CCn1c(=O)[nH]c(=O)c2c1nc(Cc1cn3cc(Cl)sc3n1)n2Cc1ccc(-c2ccn(C)n2)cc1", "half-life": "0.667 h"}
{"molecule": "CCn1c(=O)[nH]c(=O)c2c1nc(Cc1cn3cc(Cl)sc3n1)n2CC1COC1", "half-life": "> 2.42 h"}
{"molecule": "CCn1c(=O)[nH]c(=O)c2c1nc(Cc1cn3cc(Cl)sc3n1)n2Cc1ccccc1", "half-life": "> 1 h"}

q: What value of half-life has been recorded for this entry: CCn1c(=O)[nH]c(=O)c2c1nc(Cc1cn3c(n1)CCCC3)n2Cc1ccccc1
a: > 1 h

q: half-life for CCn1c(=O)[nH]c(=O)c2c1nc(Cc1cn3cc(C)sc3n1)n2CC1COC1 ?
a: > 2.42 h

q: Need half-life of CCn1c(=O)[nH]c(=O)c2c1nc(Cc1cn3cc(C)sc3n1)n2CC1CC1 , thanks.
a: 1.12 h

====

Assay: Plasma concentration in Sprague-Dawley rat at 20 mg/kg, po measured at 0.5 hrs by LC-MS/MS analysis
Assay type: ADME, organism-based
measurement_type: concentration at 0.5 h (ng/mL)
Provide the reading as a plain figure in ng/mL.

q: Record request: concentration at 0.5 h value, item CCn1c(=O)[nH]c(=O)c2c1nc(Cc1cn3cc(C)sc3n1)n2CC1COC1
a: 1420

====

Assay: Inhibition of BCRP in human Caco-2 cells seeded in polyethylene membranes assessed as permeation in presence or absence of E3S measured for 2 hrs by LC-MS/MS analysis based transporter assay
Assay type: cell-based
pIC50: −log10 of the molar value.
measurement_type: pIC50

q: Reported pIC50, molecule CCn1c(=O)[nH]c(=O)c2c1nc(Cc1cn3cc(C)sc3n1)n2CC1COC1 : ____
a: < 4.00

====

Test: AUC (0 to last) in Sprague-Dawley rat at 20 mg/kg, po measured upto 1440 mins by LC-MS/MS analysis
Assay type: ADME, organism-based
Parameters: time < 1440 min, dose 20 mg/kg, route po
Conditions: in vivo
measurement_type: AUC(0-t) at 24 h (ng·h/mL)
Expressed in ng·h/mL, but write only the number.

q: Can you look up the measured AUC(0-t) at 24 h of CCn1c(=O)[nH]c(=O)c2c1nc(Cc1cn3cc(C)sc3n1)n2CC1COC1 for me?
a: 3300

====

Test: Oral bioavailability in CD-1 (ICR) mouse at 50 mg/kg measured upto 1440 mins by LC-MS/MS analysis
Assay type: ADME, organism-based
Conditions: in vivo
measurement_type: bioavailability (%)
Field format: number, assumed %, no unit text.

q: Any idea what its bioavailability is? The molecule is CCn1c(=O)[nH]c(=O)c2c1nc(Cc1cn3cc(C)sc3n1)n2CC1COC1
a: 41.3

====

Test: Permeability across basal to apical side in MDCK-MDR1 cells at pH 6.5/7.4 measured at 5 uM by LC-MS/MS analysis
Type: ADME, cell-based, Canis lupus familiaris
Conditions: dog, MDCK-MDR1, pH 6.5
// Papp B→A at 5 µM lookup, one value per entry
Quick reminder: number only, in ×10⁻⁶ cm/s, skip the unit.

{"molecule": "CCn1c(=O)[nH]c(=O)c2c1nc(Cc1cn3cc(C)sc3n1)n2CC1CC1", "numeric_value": 54}
{"molecule": "CCn1c(=O)[nH]c(=O)c2c1nc(Cc1cn3cc(C)sc3n1)n2CC1COC1", "numeric_value": 15}

q: Record request: Papp B→A at 5 µM value, item CCn1c(=O)[nH]c(=O)c2c1nc(Cc1cn3cc(Cl)sc3n1)n2CC1COC1
a: 30

====

Quick reference for solubility among some compounds
Test: Aqueous solubility of the compound in pH 7.4 PBS buffer by HPLC-UV analysis
Format: physicochemical
Output spec: scalar in µM, unitless text.

Completed entries (count: 4):
{"molecule": "CCn1c(=O)[nH]c(=O)c2c1nc(Cc1cn3cc(Cl)sc3n1)n2Cc1ccccc1", "solubility, µM": 3.7}
{"molecule": "CCn1c(=O)[nH]c(=O)c2c1nc(Cc1cn3cc(C)sc3n1)n2CC1COC1", "solubility, µM": 189}
{"molecule": "CCn1c(=O)[nH]c(=O)c2c1nc(Cc1cn3cc(Cl)sc3n1)n2CC1COC1", "solubility, µM": 200}
{"molecule": "CCn1c(=O)[nH]c(=O)c2c1nc(Cc1cn3cc(C)sc3n1)n2Cc1ccccc1", "solubility, µM": 35.1}

q: What value of solubility has been reported for the following compound? CCn1c(=O)[nH]c(=O)c2c1nc(Cc1cn3cc(C)sc3n1)n2CC1CC1
a: 173

====

Assay: Drug uptake in Sprague-Dawley rat brain at 50 mg/kg, po measured at 0.5 hrs by LC-MS/MS analysis
Format: ADME, organism-based
Conditions: read-out: Drug uptake
measurement_type: concentration at 0.5 h (ng/g)
Numbers only; they are read as ng/g.

q: Would you kindly share the measured concentration at 0.5 h for CCn1c(=O)[nH]c(=O)c2c1nc(Cc1cn3cc(C)sc3n1)n2CC1COC1 ?
a: 43

====

Molecular target: Tryptophan 5-hydroxylase 1 (Homo sapiens)
Sequence (P17752 whole entry): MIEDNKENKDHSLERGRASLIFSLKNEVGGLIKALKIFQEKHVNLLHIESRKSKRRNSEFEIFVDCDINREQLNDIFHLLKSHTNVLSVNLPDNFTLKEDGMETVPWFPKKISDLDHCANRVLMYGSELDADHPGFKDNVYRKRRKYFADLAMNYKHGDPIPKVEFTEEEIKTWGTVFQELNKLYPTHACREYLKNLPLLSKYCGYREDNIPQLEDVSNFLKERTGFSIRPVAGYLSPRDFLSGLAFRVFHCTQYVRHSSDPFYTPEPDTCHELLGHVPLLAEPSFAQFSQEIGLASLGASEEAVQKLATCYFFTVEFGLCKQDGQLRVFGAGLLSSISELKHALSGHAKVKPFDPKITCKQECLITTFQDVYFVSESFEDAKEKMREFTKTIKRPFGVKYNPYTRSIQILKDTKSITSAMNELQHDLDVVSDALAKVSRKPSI
measurement_type: Kd (nM)
# value in nM; strip the unit string

q: For CCn1c(=O)[nH]c(=O)c2c1nc(Cc1cn3cc(C)sc3n1)n2CC1COC1 , what is its reported Kd?
a: 3.2

====

Assay: AUC (0 to infinitive) in CD-1 (ICR) mouse at 50 mg/kg, po measured upto 1440 mins by LC-MS/MS analysis
Assay type: ADME, organism-based
Parameters: time < 1440 min, dose 50 mg/kg, route po
Conditions: in vivo
measurement_type: AUC(0-inf) (ng·h/mL)
Kindly provide the numeric value in ng·h/mL only, without the unit symbol.

q: Sample CCn1c(=O)[nH]c(=O)c2c1nc(Cc1cn3cc(C)sc3n1)n2CC1COC1 — what was its AUC(0-inf)?
a: 8580

====

Test: Apparent permeability across basal to apical side in human Caco-2 cells at pH 6.5/7.4 measured at 5 uM by LC-MS/MS analysis
Type: ADME, cell-based
Details: Caco-2, pH 6.5
measurement_type: Papp B→A at 5 µM

Sample records with Papp B→A at 5 µM:
{"molecule": "CCn1c(=O)[nH]c(=O)c2c1nc(Cc1cn3cc(Cl)sc3n1)n2Cc1ccc(-c2ccn(C)n2)cc1", "result": "59.9 ×10⁻⁶ cm/s"}
{"molecule": "CCn1c(=O)[nH]c(=O)c2c1nc(Cc1cn3c(n1)CCCC3)n2Cc1ccccc1", "result": "5.7 ×10⁻⁶ cm/s"}
{"molecule": "CCn1c(=O)[nH]c(=O)c2c1nc(Cc1cn3ccccc3n1)n2Cc1ccc(-c2ccn(C)n2)cc1", "result": "46.3 ×10⁻⁶ cm/s"}
{"molecule": "CCn1c(=O)[nH]c(=O)c2c1nc(Cc1cn3cc(C)sc3n1)n2Cc1ccccc1", "result": "53.9 ×10⁻⁶ cm/s"}

q: // lookup Papp B→A at 5 µM for CCn1c(=O)[nH]c(=O)c2c1nc(Cc1cn3cc(Cl)sc3n1)n2Cc1ccccc1
a: 47.7 ×10⁻⁶ cm/s

q: Which Papp B→A at 5 µM is reported for this compound? CCn1c(=O)[nH]c(=O)c2c1nc(Cc1cn3cc(C)sc3n1)n2CC1CC1
a: 57 ×10⁻⁶ cm/s

q: What Papp B→A at 5 µM value was documented for this compound, CCn1c(=O)[nH]c(=O)c2c1nc(Cc1cn3cc(C)sc3n1)n2CC1COC1 ?
a: 23 ×10⁻⁶ cm/s

q: Please look up its Papp B→A at 5 µM: CCn1c(=O)[nH]c(=O)c2c1nc(Cc1cn3cc(Cl)sc3n1)n2CC1COC1
a: 29 ×10⁻⁶ cm/s

====

Assay: AUC (0 to last) in CD-1 (ICR) mouse at 50 mg/kg, po measured upto 1440 mins by LC-MS/MS analysis
Assay type: ADME, organism-based
Parameters: time < 1440 min, dose 50 mg/kg, route po
Conditions: in vivo
measurement_type: AUC(0-t) at 24 h
Units required after the number.

q: Can you share its AUC(0-t) at 24 h? I mean this compound: CCn1c(=O)[nH]c(=O)c2c1nc(Cc1cn3cc(C)sc3n1)n2CC1COC1
a: 8540 ng·h/mL

====

Experiment: MRT (0 to last) in Sprague-Dawley rat at 10 mg/kg, iv measured upto 1440 mins by LC-MS/MS analysis
Assay type: ADME, organism-based
Details: in vivo
measurement_type: MRT last at 24 h (min)
Write the value in min as a bare number.

q: Reported MRT last at 24 h for CCn1c(=O)[nH]c(=O)c2c1nc(Cc1cn3cc(C)sc3n1)n2CC1COC1 : what is it?
a: 36.6
